# Protocol Summary: Ocular distribution of CDO in rabbits, single dose topical ocular vs. oral
# Assay type: in vivo, New Zealand White rabbit
# Conditions Used: New Zealand White, retina/choroid; rabbit, Oral 25 mg/Kg = 45 mg, 6 h; read-out: CDO μg/g tissue Retina/Choroid

| Compound | concentration at 6 h |
| --- | --- |
| O=S(=O)(O)c1cc(O)ccc1O [CDO, Calcium dobesilate monohydrate] | 0.12 µg/g |

* * *

# Protocol Summary: Ocular distribution of CDO in rabbits, single dose topical ocular vs. oral
# Assay type: in vivo, New Zealand White rabbit
# Conditions Used: New Zealand White, optic nerve; rabbit, Oral 25 mg/Kg = 45 mg, 3 h; read-out: CDO μg/g tissue Optic nerve

| Compound | concentration at 3 h, µg/g |
| --- | --- |
| O=S(=O)(O)c1cc(O)ccc1O [CDO, Calcium dobesilate monohydrate] | 0.49 |
